System: LOX
Test: Microculture tetrazolium assay
Format: cell-based
pIC50: −log10 of the molar value. Counter-ions that a name gives are not always drawn.
Recorded pIC50 for the following compounds
Endpoint Label: pIC50

>  <Compound>
COP(=O)(CC(=O)[C@H]1CC2=C(C(=O)c3cc4ccccc4c(O)c3C2=O)[C@H](O[C@H]2C[C@H](NC(=O)C(F)(F)F)[C@H](O)[C@H](C)O2)O1)OC [BCH-1679]

>  <Endpoint Result>
5.96

$$$$
>  <Compound>
COP(=O)(CC(=O)[C@@H]1CC2=C(C(=O)c3cc4ccccc4c(O)c3C2=O)[C@@H](O[C@H]2C[C@H](NC(=O)C(F)(F)F)[C@H](O)[C@H](C)O2)O1)OC [BCH-1678]

>  <Endpoint Result>
5.42

$$$$
>  <Compound>
CO[C@H]1O[C@H](C(=O)CP(=O)(OC)OC)CC2=C1C(=O)c1cc3ccccc3c(O)c1C2=O (relative stereo) [BCH-1650]

>  <Endpoint Result>
6.12

$$$$
>  <Compound>
CCOC(=O)[C@@H]1CC2=C(C(=O)c3c(cc4ccccc4c3OC(C)=O)C2=O)[C@@H](O)O1 (relative stereo) [BCH-657]

>  <Endpoint Result>
5.03

$$$$
>  <Compound>
CC(=O)[C@H]1CC2=C(C(=O)c3cc4ccccc4c(O)c3C2=O)[C@H](O[C@H]2O[C@H](CO)[C@@H](O)[C@H](O)[C@H]2NC(=O)N(CCCl)N=O)O1 [BCH-2039]

>  <Endpoint Result>
5.81

$$$$
>  <Compound>
CC(=O)[C@@H]1Cc2c(O)c3c(c(O)c2[C@@H](O[C@H]2O[C@H](CO)[C@@H](O)[C@H](O)[C@H]2NC(=O)N(CCCl)N=O)O1)C(=O)c1ccccc1C3=O [BCH-1999]

>  <Endpoint Result>
5.30

$$$$
>  <Compound>
CC(=O)[C@@H]1CC2=C(C(=O)c3cc4ccccc4c(O)c3C2=O)[C@@H](O[C@H]2C[C@H](NC(=O)C(F)(F)F)[C@H](O)[C@H](C)O2)O1 [BCH-730]

>  <Endpoint Result>
5.75

$$$$
>  <Compound>
CC[C@@H]1CC2=C(C(=O)c3cc4ccccc4c(O)c3C2=O)[C@@H](O[C@H]2C[C@H](N)[C@H](O)[C@H](C)O2)O1 [BCH-1614, hydrochloride]

>  <Endpoint Result>
5.96

$$$$
>  <Compound>
CC[C@H]1CC2=C(C(=O)c3cc4ccccc4c(O)c3C2=O)[C@H](O[C@H]2C[C@H](N)[C@H](O)[C@H](C)O2)O1 [BCH-1610, hydrochloride]

>  <Endpoint Result>
6.07

$$$$
>  <Compound>
CC(=O)[C@@H]1CC2=C(C(=O)c3cc4ccccc4c(O)c3C2=O)[C@@H](O[C@H]2O[C@H](CO)[C@@H](O)[C@H](O)[C@H]2NC(=O)N(CCCl)N=O)O1 [BCH-2073]

>  <Endpoint Result>
6.09

$$$$
>  <Compound>
CC(=O)[C@@H]1CC2=C(C(=O)c3cc4ccccc4c(O)c3C2=O)[C@@H](O[C@H]2C[C@H](O)[C@H](O)[C@H](C)O2)O1 [BCH-1124]

>  <Endpoint Result>
5.73

$$$$
